test system: MDA-MB-435 melanoma; assay: NCI-60 one-dose screen, 48 h (100 = growth as untreated, 0 = no growth, -100 = all killed); conditions: 10 µM
The panel holds about 83,000 compounds, 20% with a hit somewhere; the sample as a whole holds those more often.
I'd appreciate it if you marked entries fulfilled when growth is lower than 20% and not fulfilled when it is not.

Find out if reported growth for COc1ccc2c(c1)CC=C1[C@@H]2CC[C@]2(C)C(=O)/C(=N/O)C[C@@H]12 is less than 20%
not fulfilled

Find out if reported growth for O=C(/C=C/c1cccc(B(O)O)c1)c1cccc(B(O)O)c1 is less than 20%
fulfilled

Find out if reported growth for CN(C)CCOc1ccccc1NC1=C(Cl)C(=O)C(Nc2ccccc2OCCN(C)C)=C(Cl)C1=O is less than 20%
not fulfilled

Find out if reported growth for COc1cc(C(=O)n2nc(-c3cc(OC)c(OC)c(OC)c3)nc2N)cc(OC)c1OC is less than 20%
not fulfilled

Find out if reported growth for CC1OC2CC(=O)OC2C2=C1C(=O)c1c(O)c3c(c(O)c1C2=O)C1CC(O)C3(O)C(C)O1 (configuration not stated) is less than 20%
fulfilled

Find out if reported growth for Cc1cc(CCNC=O)c(C)c2c1sc1ccccc12 is less than 20%
not fulfilled

Find out if reported growth for COc1cc(-c2nn(-c3cccc(NC(=O)CCN4CCN(Cc5ccccc5)CC4)c3)cc2-c2ccncc2)ccc1Cl is less than 20%
fulfilled

Find out if reported growth for O=[N+]([O-])c1cccc(/C=N/NC(=S)NC23CC4CC(CC(C4)C2)C3)c1 is less than 20%
not fulfilled

Find out if reported growth for O=[N+]([O-])c1ccc(NCSc2ccc(Cl)cc2)cc1 is less than 20%
not fulfilled

Find out if reported growth for COc1ccccc1-n1c(-c2sc(NC(C)=O)nc2C)n[nH]c1=S is less than 20%
not fulfilled

Find out if reported growth for COCCn1cc(-c2nc(-c3cccnc3)cs2)c2cc(F)ccc21 is less than 20%
not fulfilled

Find out if reported growth for COc1cc(CNC(=O)C2CSC3(C)c4ccccc4C(=O)N23)cc(OC)c1OC (configuration not stated) is less than 20%
not fulfilled

Find out if reported growth for CC[C@@H](C(=O)[C@@H](C)[C@@H](O)[C@H](C)[C@@H]1O[C@@H]([C@@H](CC)C(=O)N(CC)CC)CC[C@@H]1C)C1O[C@]2(C=CC(=O)[C@]3(CC[C@@](C)([C@H]4CC[C@](O)(CC)[C@H](C)O4)O3)O2)[C@H](C)C[C@@H]1C (some centres not stated) is less than 20%
not fulfilled

Find out if reported growth for CCOC(=O)C1=CSC2=NC3=C(CCC/C3=C\c3cc(OC)c(OC)c(OC)c3)C(c3cc(OC)c(OC)c(OC)c3)N12 (configuration not stated) is less than 20%
not fulfilled

Find out if reported growth for C=CCn1c(SCC(=O)Nc2ccc(C(=O)/C=C/c3cc(OC)c(OC)c(OC)c3)cc2)nnc1-c1cc(-c2ccc(Cl)cc2)nc2ccccc12 is less than 20%
not fulfilled

Find out if reported growth for CN1CCN(CCC(=O)Nc2cccc(-n3cc(-c4ccncc4)c(-c4ccc(Cl)c(O)c4)n3)c2)CC1 is less than 20%
fulfilled

Find out if reported growth for CN(C)CCOc1cccc(NC2=C(Cl)C(=O)C(Nc3cccc(OCCN(C)C)c3)=C(Cl)C2=O)c1 is less than 20%
fulfilled

====

test system: KM12 colon; test: NCI-60 one-dose screen, 48 h; settings: 10 µM
The panel holds about 83,000 compounds, 20% with a hit somewhere; the sample as a whole holds those more often. The source made the active and inactive calls. The calls were made as follows: active = growth percent below 10; inactive = the rest.
// allowed return values: active, inactive

A selection of reference data follows.
Compound	Group
COc1ccc(-c2csc(NC(=O)c3ccc(Cc4n[nH]c(=O)c5cccnc45)cc3)n2)cc1	inactive
OC(CNc1ccnc2cc(Cl)ccc12)CNC1CCCCC1 (centres undefined)	inactive

Recorded test call requested for O=C(CCCCNC(=O)c1nc(-c2ccccc2)n(-c2ccccc2)n1)NO
inactive

Recorded test call requested for COc1ccc(-c2nn(-c3cccc(Cl)c3)cc2-c2c(C#N)c(N)n(N)c(=O)c2C#N)cc1
inactive

Recorded test call requested for O=C(N/N=C/c1cc([N+](=O)[O-])ccc1O)c1cccc2ccccc12
inactive

Recorded test call requested for N#CC1=CC2CN(Cc3ccccc3)C1C1C(=O)N(c3ccccc3)C(=O)C21 (centres undefined)
inactive

Recorded test call requested for O=C(Cn1cc(CO)nn1)Nc1nc2ccccc2s1
inactive

Recorded test call requested for CCOC(=O)c1sc2ncnc(Nc3ccc(NC(=O)Nc4ccc(Cl)cc4)cc3)c2c1C
inactive

Recorded test call requested for O=C1/C=C/[C@@H](O)[C@@H]2C[C@@H](O)C[C@H]2/C=C/CCC[C@H](C(F)(F)F)O1
inactive

Recorded test call requested for CCCC1(CN2c3ccccc3Sc3ccc(Cl)cc32)CCN(CC)C1 (centres undefined)
active

====

tested on: T-47D breast; experiment: NCI-60 one-dose screen, 48 h; conditions: 10 µM
This is part of a sample that, as a whole, favours compounds with a hit. Of some 83,000 tested, about 20% had one in any assay. The source made the active and inactive calls. Rule for the calls: active = growth percent below 10; inactive = the rest.
// allowed return values: active, inactive

A selection of reference data follows.
Molecule	Experimental Target	Group
Cc1cc(=O)n2nnc3cc(Cl)c(Cl)cc3n12	T-47D breast	inactive
CCCCN1C(=O)CC(SC2CC(=O)N(CCCC)C2=O)C1=O (stereo not given)	T-47D breast	inactive
C=C(NC(=O)C(=C)NC(=O)c1csc(C2=NC3c4csc(n4)C4NC(=O)c5csc(n5)C(C(C)(O)C(C)O)NC(=O)C5CSC(=N5)C(=CC)NC(=O)C(C(C)O)NC(=O)c5csc(n5)C3(CC2)NC(=O)C(C)NC(=O)C(=C)NC(=O)C(C)NC(=O)C(C(C)CC)NC2C=Cc3c(C(C)O)cc(nc3C2O)C(=O)OC4C)n1)C(N)=O (stereo not given)	T-47D breast	inactive
COc1ccc(-c2nc(-c3nc4ccc(C)cc4[nH]3)cc3c2[nH]c2ccccc23)cc1	T-47D breast	inactive
COc1cc(-c2nn(-c3cccc(NC(=O)CN4CCOCC4)c3)cc2-c2cccnc2)ccc1Cl	T-47D breast	inactive
N#Cc1ccc(C(=O)CSc2nccc(Nc3ccc(C(=O)O)cc3)n2)cc1	T-47D breast	inactive
COc1cc(-c2csc(NC(=O)Nc3ccc(Cl)c(C(F)(F)F)c3)n2)cc(OC)c1OC	T-47D breast	active
NC(N)=N/N=C(\N=Nc1ccccc1)c1ccc(Cl)cc1	T-47D breast	inactive

Recorded test call requested for Nc1cc(-c2ccncc2)c[nH]c1=O
inactive

Recorded test call requested for CC1CCCC(C(=O)O)C1C(=O)O (stereo not given)
inactive

Recorded test call requested for O=C(COc1cccc(/C=C2\CSc3ccccc3C2=O)c1)c1ccc(Cl)cc1
inactive

Recorded test call requested for O=C(O)COc1c(Cl)cc([N+](=O)[O-])cc1Cl
inactive

Recorded test call requested for CS(=O)(=O)c1nccc(-c2c(-c3cccc(OCc4ccccc4)c3)nc3sccn23)n1
inactive

Recorded test call requested for NS(=O)(=O)Oc1ccc2c(ccn2C(=O)C23CC4CC(CC(C4)C2)C3)c1
inactive

Recorded test call requested for O=C1/C=C/[C@@H](O)[C@@H]2C[C@@H](O)C[C@H]2/C=C/CCC[C@@H](C(F)(F)F)O1
inactive

Recorded test call requested for Cc1c2c[n+](C(C)C)ccc2c(C)c2c1[nH]c1ccccc12
active

Recorded test call requested for COc1cccc(CNc2cccc3cn[nH]c23)c1O
inactive

Recorded test call requested for COc1ccccc1/C=N\N/C(N)=N\N=C\c1ccccc1OC
inactive

Recorded test call requested for CC(C)N(CCOc1ccc(-c2nc3sccn3c2-c2ccnc(S(C)(=O)=O)n2)cc1)C(C)C
inactive

Recorded test call requested for CNS(=O)(=O)Oc1ccc(-c2sc3cc(OS(=O)(=O)NC)ccc3c2C(=O)c2ccc(OCCN3CCCCC3)cc2)cc1
inactive

====

test system: SN12C renal; test: NCI-60 one-dose screen, 48 h (100 = growth as untreated, 0 = no growth, -100 = all killed); details: 10 µM
About 83,000 compounds went through this panel and 20% of them were active in at least one assay; those are over-represented in the sample as a whole.
I'd appreciate it if you marked entries fulfilled when growth is lower than 40% and not fulfilled when it is not.

A selection of reference data follows.
> print(dat)
                                   compound          group
1  CCCCCC(=O)O[C@]1(C(C)=O)CCC2C3CCC4=CC(=O)CC[C@]4(C)C3CC[C@@]21C (stereo not given in full)      fulfilled
2  NS(=O)(=O)Oc1ccc2c(ccn2C(=O)C23CC4CC(CC(C4)C2)C3)c1  not fulfilled
3           Brc1ccc2c(c1)-c1ccccc1C1=NCCN12      fulfilled
4         CN(C)CCCN1c2ccccc2CCc2ccc(Cl)cc21  not fulfilled

Please look at the following compound next.
Find out if reported growth for COc1cc2cc(Oc3ccc(NC(=O)c4cccc(C(F)(F)F)c4)cc3)c(C)nc2cc1OC is less than 40%
fulfilled
